Values from ChEMBL document CHEMBL3244091

# assay-target: Sodium-dependent serotonin transporter (Rattus norvegicus)
# test-summary: Inhibition of SERT-mediated 5-HT uptake in Wistar rat brain synaptosomes at 0.2 uM
# Assay type: subcellular
Catalogue of inhibition readings, one per entry.
Hi! Could you send only the number? It should be in %, unit omitted.

Example entries begin here.
CC(N)Cc1ccc(Cl)s1.Cl (racemic) : 17.7
CC(N)Cc1ccc(Cl)cc1.Cl (racemic) : 38.4
CC(N)Cc1cc(Cl)c(Cl)s1.Cl (racemic) : 40.5

// returns reported inhibition for input CC(N)Cc1cccs1.Cl (racemic)
5.3

// returns reported inhibition for input CC(N)Cc1scc(Cl)c1Cl.Cl (racemic)
27.5

// returns reported inhibition for input CC(N)Cc1sc(Cl)cc1Cl.Cl (racemic)
19.4

// returns reported inhibition for input CC(N)Cc1cc(Cl)cs1.Cl (racemic)
18.7

// returns reported inhibition for input CC(N)Cc1sccc1Cl.Cl (racemic)
6.6
